B1: glmS ribozyme (parent)
chain: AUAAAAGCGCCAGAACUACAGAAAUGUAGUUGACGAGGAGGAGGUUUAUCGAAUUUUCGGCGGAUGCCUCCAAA

Variants of: B1
Test: self-cleavage kobs at 40 uM GlcN6P; higher = faster cleavage; RNA array
Settings: with glucosamine-6-phosphate
Variants at the floor of the assay were thinned out.
Listed next: entries and their corresponding self-cleavage kobs at 40 uM GlcN6P.

Worked cases, answers included:
C11G C58U
< 1e-05 s⁻¹
C61G G63A
< 1e-05 s⁻¹
G44C G59C
< 1e-05 s⁻¹
G37A C70A
< 1e-05 s⁻¹

Entry A64G U65C C68A — recorded self-cleavage kobs at 40 uM GlcN6P = < 1e-05 s⁻¹

Entry A52C U56A — recorded self-cleavage kobs at 40 uM GlcN6P = < 1e-05 s⁻¹

Entry U30A A64G — recorded self-cleavage kobs at 40 uM GlcN6P = 0.000149 s⁻¹

Entry G37C A42C — recorded self-cleavage kobs at 40 uM GlcN6P = < 1e-05 s⁻¹

Entry G59C C67A — recorded self-cleavage kobs at 40 uM GlcN6P = < 1e-05 s⁻¹

Entry G29U G59A — recorded self-cleavage kobs at 40 uM GlcN6P = < 1e-05 s⁻¹

Entry A15U C34G G66U C71U — recorded self-cleavage kobs at 40 uM GlcN6P = < 1e-05 s⁻¹

Entry C16G G44U — recorded self-cleavage kobs at 40 uM GlcN6P = < 1e-05 s⁻¹

Entry A36C G37C G41C C50A A52C C71U — recorded self-cleavage kobs at 40 uM GlcN6P = < 1e-05 s⁻¹

Entry C8U G37C A42U U55C — recorded self-cleavage kobs at 40 uM GlcN6P = < 1e-05 s⁻¹

Entry G32C C70G C71G — recorded self-cleavage kobs at 40 uM GlcN6P = 7.5e-05 s⁻¹

Entry C50G U69G — recorded self-cleavage kobs at 40 uM GlcN6P = 0.000135 s⁻¹

Entry G7C G29U G32U A64C — recorded self-cleavage kobs at 40 uM GlcN6P = < 1e-05 s⁻¹

Entry A42U U69A — recorded self-cleavage kobs at 40 uM GlcN6P = 0.00293 s⁻¹

Entry A53U C71U — recorded self-cleavage kobs at 40 uM GlcN6P = 0.000617 s⁻¹

Entry `G9A` — recorded self-cleavage kobs at 40 uM GlcN6P = < 1e-05 s⁻¹
